PROPERTY LABEL: logP

Consider the following illustrative entries.
compound=O=C(O)COc1cccc(I)c1 property_label=logP reported_result=2.44
compound=CCN(CC)Cc1cccnc1 property_label=logP reported_result=1.01
compound=CCCOCCC property_label=logP reported_result=2.03
compound=CCN(CC)C(=O)N(C)N=O property_label=logP reported_result=1.11
compound=N#CCc1ccsc1 property_label=logP reported_result=1.26
compound=COc1ccc(CC(=O)O)cc1 property_label=logP reported_result=1.42
compound=Nc1cnc2ccccc2c1 property_label=logP reported_result=1.63
compound=CCc1nnc(NS(=O)(=O)c2ccc(N)cc2)s1 property_label=logP reported_result=1.01

Hello, I would appreciate it if you could give logP for each entry below.
1. CC(Br)C(=O)O (stereo not given)
2. CC(=O)NCC(=O)N[C@@H](CC(C)C)C(N)=O
3. CCC(=O)Nc1ccnc2cc(Cl)ccc12
4. C=CCOC(=O)c1ccccc1C(=O)OCC=C
5. CN1C(=O)CN=C(c2ccccc2F)c2cc(Cl)ccc21

[0.92, -0.78, 2.73, 3.23, 2.75]

For every item below, please supply its logP.
1. O=S(=O)(Nc1ccccc1)C(F)(F)F
2. Cn1c(N)nc2cc(C#N)ccc21
3. N#CCc1ccc(Cl)cc1
4. COC(=O)C(C)NC(C)=O (stereo not given)
5. CC(F)F
6. O=COc1ccccc1
7. N#Cc1cccc(CC(=O)O)c1
8. O=C(c1ccccc1)c1ccc(O)cc1

1. 3.05
2. 1.11
3. 2.47
4. -0.57
5. 0.75
6. 1.26
7. 1.18
8. 3.07

// for each compound below, give its logP
1. C=CCc1ccccc1OCC(O)CNC(C)C (stereo not given)
2. C[Si](C)(C)c1ccc(O)cc1
3. CN1CCN(CCCN2c3ccccc3Sc3ccc(Cl)cc32)CC1

1. 3.1
2. 3.84
3. 4.88

Below are 8 compounds. Give each one its logP.
1. CC(C)C[C@H](N)C(=O)O
2. CCCOC(=O)c1ccc(S(N)(=O)=O)cc1
3. COC(=O)c1ccccc1S(I)=C(N(C)C)N(C)C (stereo not given)
4. O=[N+]([O-])c1ccc2nc(C(F)(F)F)[nH]c2c1
5. O=C(O)c1ccccc1F
6. NNC(=O)c1ccnc([N+](=O)[O-])c1
7. Cc1cc2ccccc2cn1
8. CCCCCCCN

1: -1.52; 2: 1.75; 3: -0.7; 4: 2.68; 5: 1.77; 6: -0.76; 7: 2.68; 8: 2.57

====

PROPERTY LABEL: logP
Give bare numbers.

compound=CNC(=O)Oc1cc(C(C)C)cc(C(C)C)c1 property_label=logP reported_result=3.79
compound="CON=C(C(=O)NC1C(=O)N2C(C(=O)OC(C)OC(C)=O)=C(COC(N)=O)CSC12)c1ccco1 (stereo not drawn)" property_label=logP reported_result=0.89

Could you now look at the following compound, please?
Consider the compound CC(=O)OC(C)(C)C . State its measured logP. 1.76

====

Answer each item with its documented logP.
Peptide text beside a SMILES is read from it.
Numbers only.

Example compounds with recorded logP:
compound=CNC(=O)Oc1cccc2c1OC(C)(C)C2 property_label=logP reported_result=2.32
compound=S=c1[nH]c2ccccc2[nH]1 property_label=logP reported_result=1.66
compound=O=C(Nc1ccc([N+](=O)[O-])cc1)c1cccnc1 property_label=logP reported_result=1.82
compound=CC(C)c1ccc([N+](=O)[O-])cc1 property_label=logP reported_result=3.45
compound=OCCc1ccncc1 property_label=logP reported_result=0.1

Hey, can you go through the list below and give me logP for every item?
1. OCC1OC(Oc2ccc(Cl)cc2)C(O)C(O)C1O (stereo not given)
2. CC(=O)NC(C(=O)NC(CCC(N)=O)C(N)=O)C(C)C (stereo not drawn) (Ac-Val-Gln-NH2; configuration not given here)
3. CC(=O)NC1=CC(=O)c2ccccc2C1=O
4. N#Cc1cccs1
5. N#Cc1ccc(C(=O)O)cc1
6. Cc1cc(=O)cc(C)o1

1: 0.26; 2: -1.82; 3: 1.29; 4: 1.27; 5: 1.56; 6: 0.1

====

Categorized via logP: bottom range (below 1), center range (1 to below 3), top range (3 or more)

// known answers, use as guide
compound="CCCNC(C)C(=O)Nc1ccccc1C (stereo unspecified)" qualitative_label="center range"
compound=COc1ccc(OCC(=O)O)cc1 qualitative_label="center range"
compound=ClCc1ccc(Cl)cc1Cl qualitative_label="top range"

Given CCOP(=S)(Oc1ccc(C#N)cc1)c1ccccc1 (stereo unspecified) , name the class its logP places it in. top range

Class (by measured logP) for Oc1ccccc1C(F)(F)F center range

Place this compound in its band: C=CCN1CCc2nc(N)sc2CC1 center range

Lab log: CCCCOC(=O)n1cnc(CSCCNC(=NC#N)NC)c1C — assign logP category center range

Kindly identify the class of COc1ccc(O)cc1 . center range

Which category fits this record: OCc1cccnc1 bottom range

Lab note: sort O=[N+]([O-])c1ccc(Cl)c(Cl)c1Cl into the matching logP band. top range

Place this compound in its band: Clc1cccc(-c2cccc(Cl)c2Cl)c1 top range

For CCOC(=O)[C@H](CCc1ccccc1)N[C@@H](C)C(=O)N1CCC[C@H]1C(=O)O , which logP bin applies? bottom range

Using the reported logP, which band applies to CCC1(CC)C(=O)NC(=O)N(C)C1=O ? center range

Textbook exercise: identify the category of the compound given here, Oc1ccccc1I , according to its measured value. center range

The entry to classify is Nc1nccs1 ; which class holds it? bottom range

====

Friendly reminder: logP below 1 is Condition met, at or above is Condition not met.

Some entries whose results are on file:
compound=CN(C)C(=O)c1cccnc1 qualitative_label="Condition met"
compound=c1ccc(Cc2ccccc2)cc1 qualitative_label="Condition not met"

Consider the additional compound presented here.
Lab note: confirm whether the reported logP for this compound is below 1, equality not counting. compound: O=C(O)CCl Condition met

====

PROPERTY LABEL: logP
Answers are plain numbers.

compound=CC(C)c1ccccc1OCC(=O)O property_label=logP reported_result=2.84

I would be grateful if you could provide logP for each of the following entries.
1. CNC1=CC(=O)c2ccccc2C1=O
2. S=C=Nc1ccc(-c2ccccc2)cc1
3. COc1cc2c(c(OC)c1OC)-c1ccc(OC)c(=O)cc1C(N)CC2 (stereo not drawn)

1.74
4.66
1.1

Go through the list and state logP for each entry.
1. CCCCCc1cn[nH]c1
2. COc1cccc(C(C)=O)c1

1. 2.96
2. 1.84

Would you be so kind as to report logP for each listed record?
1. OCCN1CCN(CCC=C2c3ccccc3Sc3ccc(C(F)(F)F)cc32)CC1
2. NC(Cc1ccc(F)cc1)C(=O)O (racemic)
3. O=C1CCC(=O)N1c1ccccc1[N+](=O)[O-]
4. CCOC(N)=O
5. CCc1ccccc1OC(C)=O
6. CC(=O)Oc1ccc([N+](=O)[O-])cc1
7. CC(C)(C(=O)O)C(=O)O

1. 4.51
2. -1.89
3. 0.36
4. -0.15
5. 2.42
6. 1.5
7. 0.39

====

Provide the recorded logP for the entries that follow.
Give bare numbers.

Example entries and their recorded answers appear below.
compound=NS(=O)(=O)c1nc2ccc(Cl)cc2s1 reported_result=2.1
compound=CC[C@H](C)C(=O)O[C@H]1C[C@H](O)C=C2C=C[C@H](C)[C@H](CC[C@@H]3C[C@@H](O)CC(=O)O3)[C@H]21 reported_result=2.42
compound=Clc1cccnc1 reported_result=1.33

Hello, I would appreciate it if you could give logP for each entry below.
1. CC1=NOC(=O)C1=NNc1ccccc1Cl
2. CCc1ccc(OC(=O)NC)cc1
3. CCc1ccccc1-c1nc(N)nc(N)n1
4. N#CCc1cccs1
5. c1ccc2[nH]ccc2c1
6. O=c1c2ccccc2sc2ccccc12
7. CC12CC(O)C3C(CCC4(O)CC(O)CC(O)C34CO)C1(O)CCC2C1=CC(=O)OC1 (configuration not stated)

2.6
2.23
1.65
1.26
2.14
3.99
-0.02

====

Cut-off 3 on logP, inclusive. At or above means Criterion met; below means Criterion not met.

State whether the measured logP reaches 3, counting equality as reaching it, for O=C(O)COc1cccc(-c2ccccc2)c1 Criterion met

Quick check: does CC(=O)c1ccc(C(=O)O)cc1 have logP greater than or equal to 3? Criterion not met

Check the entry OCCOCCOCCN1CCC(=C(c2ccccc2)c2ccccc2)CC1 : does logP equal or exceed 3? Criterion met

Item ClC(Cl)=C(Cl)Cl with logP of 3 or above? Criterion met

Is logP for Clc1ccccc1-c1c(Cl)cccc1Cl at or above 3? Criterion met

====

For each record, write down the corresponding logP.
One number for each entry.

Here is how some compounds turned out for logP.
compound=CC(=O)OC[C@H]1O[C@@H](n2ncc(=O)[nH]c2=O)[C@H](OC(C)=O)[C@@H]1OC(C)=O reported_result=-0.2
compound=N#Cc1c(Cl)cccc1Cl reported_result=2.74
compound=CC1=C(N2CC2)C(=O)C(Cl)=C(N2CC2)C1=O reported_result=1.2
compound=O=C(O)CCc1ccc(O)cc1 reported_result=1.16

Could you report logP for every entry in the following list?
1. O=[N+]([O-])c1ccccn1
2. COP(=S)(OC)Oc1ccc(S(=O)(=O)N(C)C)cc1

0.48
2.23

Hi! Can you tell me logP for each of these compounds?
1. Cc1cccc(C2CNCCO2)c1 (centres undefined)
2. O=C(O)CCCCN1C(=O)C=CC1=O
3. CS/C(C)=N/OC(=O)N(C)SN(C)C(=O)O/N=C(\C)SC
4. CN(C)CCN(C)C
5. NS(=O)(=O)c1ccc([N+](=O)[O-])cc1

1. 1.52
2. 0.6
3. 1.7
4. 0.3
5. 0.64

Look at each compound and report its logP.
1. NCCCCCC(=O)O
2. CCCCN(CCCC)N=O
3. CCNc1nc(Cl)nc(NC(C)C)n1
4. CC(=O)NC(=O)NC(C)=O
5. COc1cc([C@@H]2c3cc4c(cc3C(O[C@@H]3O[C@@H]5COC(c6cccs6)O[C@H]5[C@H](O)[C@H]3O)C3COC(=O)[C@@H]32)OCO4)cc(OC)c1O (some centres undefined)

1: -2.95; 2: 2.63; 3: 2.61; 4: -0.68; 5: 1.24

Take each entry in turn and give its logP.
1. N#CCc1ccccc1
2. O=C(O)Cc1ccccc1Nc1ccccc1

1.56
3.49
